protocol.text: Toxicity liver stage against HepG2, at 10uM
Type: cell-based
Set-up: test concentration 10 uM, cell line HepG2-A16-CD81EGFP
test.context: human, HepG2-A16-CD81EGFP cells; read-out: INHIBITION
readout.name: cytotoxicity at 10 µM (%)
One number for each entry, in %.

Solved cases below.
| molecule | readout.name | measured.number |
| --- | --- | --- |
| CN(C)CCN(Cc1ccco1)C(=O)Cc1cn2ccsc2n1 | cytotoxicity at 10 µM | 5.92 |
| Cc1cc(C)n(CC(=O)N2Cc3cnc(C(C)(C)C)nc3C2)n1 | cytotoxicity at 10 µM | 3.1 |
| O=C(N1CCOCC1)[C@@]12CCO[C@@H]1CCN(CC1CCCC1)C2 | cytotoxicity at 10 µM | -0.385 |
| COCCN1CCC(CNc2cnc3ccccc3n2)CC1 | cytotoxicity at 10 µM | -46.6 |
| COc1cc(CNCc2ccnc(N3CCOCC3)c2)cc(OC)c1 | cytotoxicity at 10 µM | 6.1 |

Next, consider the following molecule.
Value of measured cytotoxicity at 10 µM for the entry O=C(CCNc1ncccn1)N1CCCC(n2cccn2)C1 (stereo unspecified) : 0.2
